Biological target: T1, human CD8 on human T cells (human, UniProt P01732 22-235; P10966 22-210)
T1 construct: whole, on cells; Target as carried by human CD3+/CD8+ T cells, PBMCs or MART-1-specific T cells; the mice were immunized with human CD8a; also called hCD8; CD8 expressed on the cell surface
T1 sequence (P01732 22-235, chain 1 of 2): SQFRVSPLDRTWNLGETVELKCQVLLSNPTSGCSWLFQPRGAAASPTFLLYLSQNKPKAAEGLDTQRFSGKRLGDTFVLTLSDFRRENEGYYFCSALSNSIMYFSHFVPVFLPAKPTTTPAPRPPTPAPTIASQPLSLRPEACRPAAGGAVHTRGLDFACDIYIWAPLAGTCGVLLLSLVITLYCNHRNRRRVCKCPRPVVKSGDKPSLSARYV
T1 sequence (P10966 22-210, chain 2 of 2): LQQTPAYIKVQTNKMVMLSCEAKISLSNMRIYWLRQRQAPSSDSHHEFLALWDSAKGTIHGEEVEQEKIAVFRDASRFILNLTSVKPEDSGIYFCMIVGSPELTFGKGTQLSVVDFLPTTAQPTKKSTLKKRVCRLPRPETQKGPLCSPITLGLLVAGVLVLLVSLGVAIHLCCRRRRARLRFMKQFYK
Assay: flow cytometry, 5 nM antibody on human CD8+ T cells, anti-human IgG detection (MFI AF647)
recorded metric: binding result

binder="03-Parent-VH-D64E (antibody, V domains shown, also called 03A01 VH-D64E) VH: DVQFQESGPGLVKPSQSLSLTCTVTGYSITSDFAWNWIRQFPGNELEWMGYISYSGETNYNPSLRSRISITRDTSKNQFFLQLDSVTTEDTATYYCTIRGYYTDSAFVFWGQGTLVTVSA VL: DIQMTQSSSYLSVSLGGRVTITCKASDHINNWLAWYQQKPGNAPRLLISGATSLETGVPSRFTGSGSGLDYTLSITSLQTEDVATYYCQQYWNSPFTFGSGTKLEIK" obs_value=binds
binder="humanized 03A01-VH4-VK2 (antibody, V domains shown) VH: EVQFQESGPGLVKPSQTLSLTCTVSGYSITSDFAWNWIRQPPGKGLEWIGYISYSGDTYYNPSLKSRVTISRDTSKNQFSLKLSSVTAADTAVYYCTIRGYYTDSAFVFWGQGTLVTVSS VL: DIQMTQSPSTLSVSVGDRVTITCKASDHINNWLAWYQQKPGKAPKLLISGATSLETGVPSRFSGSGSGLEYTLTISSLQPDDFATYYCQQYWNSPFTFGQGTKLEIK" obs_value=binds
binder="humanized 03A01-VH4-VK1 (antibody, V domains shown) VH: EVQFQESGPGLVKPSQTLSLTCTVSGYSITSDFAWNWIRQPPGKGLEWIGYISYSGDTYYNPSLKSRVTISRDTSKNQFSLKLSSVTAADTAVYYCTIRGYYTDSAFVFWGQGTLVTVSS VL: DIQMTQSSSTLSVSLGDRVTITCKASDHINNWLAWYQQKPGKAPRLLISGATSLETGVPSRFSGSGSGLEYTLTISSLQPDDFATYYCQQYWNSPFTFGQGTKLEIK" obs_value=binds

The reported measurements were obtained from patent US20250101107A1.
